test system: adult S. mansoni worms; assay: Ex vivo adult S. mansoni phenotypic screen (descriptors and severity scores); set-up: species or system Schistosoma mansoni; settings: 10 μM compound, 5 h; maximum score 4
Measured Property: Severity scores 5 h
// print number alone

Exam item: Returns the measured Severity scores 5 h for the input molecule. Input: CS(=O)(=O)Nc1ccc(-c2ccnc3[nH]ccc23)cc1 [GSK993273]
Marked response: 0

Exam item: Okay, and Cc1cccc(Nc2nc(N[C@H]3CCCC[C@H]3N)ncc2C(N)=O)c1 [GSK986310] ?
Marked response: 1

Exam item: Okay, and Cc1cccc(Nc2nc(NCCN)ncc2C(N)=O)c1 [GSK1292139] ?
Marked response: 0

Exam item: Okay, and Cc1n[nH]c2cc(Nc3ccnc(Nc4cccc(CN5CCOCC5)c4)n3)ccc12 [GW682569] ?
Marked response: 0

Exam item: Okay, and NCCNS(=O)(=O)c1ccc(-c2ccnc3[nH]ccc23)cc1 [GSK977617] ?
Marked response: 0

----------
Test system: adult S. mansoni worms
Test: Ex vivo adult S. mansoni phenotypic screen (descriptors and severity scores)
Design: species or system Schistosoma mansoni
Details: 10 μM compound, 24 h; maximum score 4
Description: The 12 compounds identified from the SPR screen were tested against ex vivo adult S. mansoni worms to investigate whether they induce phenotypic alterations in the parasite. Compound effects at 10 μM were assessed at 2, 5, and 24 h, and activity was partially quantified using an observation-based severity scoring system that is designed to holistically assess the many different responses to chemical insult of which the schistosome is capable.[26],[27] […]
Measured Property: Severity scores 24 h
// print number alone

Exam item: Returns the measured Severity scores 24 h for the input compound. Input: CS(=O)(=O)Nc1ccc(-c2ccnc3[nH]ccc23)cc1 [GSK993273]
Marked response: 0

Exam item: Okay, and Nc1n[nH]c2cnc(-c3ccccc3)cc12 [SB-642124] ?
Marked response: 0

Exam item: Okay, and Cc1cccc(Nc2nc(NCCN)ncc2C(N)=O)c1 [GSK1292139] ?
Marked response: 0

Exam item: Okay, and Cc1n[nH]c2cc(Nc3ccnc(Nc4cccc(CN5CCOCC5)c4)n3)ccc12 [GW682569] ?
Marked response: 0

Exam item: Okay, and NCCNS(=O)(=O)c1ccc(-c2ccnc3[nH]ccc23)cc1 [GSK977617] ?
Marked response: 0

Exam item: Okay, and Cc1cccc(Nc2nc(N[C@H]3CCCC[C@H]3N)ncc2C(N)=O)c1 [GSK986310] ?
Marked response: 1
